- tested_on: Aminopeptidase N (Sus scrofa)
- Sequence (P15145 whole entry): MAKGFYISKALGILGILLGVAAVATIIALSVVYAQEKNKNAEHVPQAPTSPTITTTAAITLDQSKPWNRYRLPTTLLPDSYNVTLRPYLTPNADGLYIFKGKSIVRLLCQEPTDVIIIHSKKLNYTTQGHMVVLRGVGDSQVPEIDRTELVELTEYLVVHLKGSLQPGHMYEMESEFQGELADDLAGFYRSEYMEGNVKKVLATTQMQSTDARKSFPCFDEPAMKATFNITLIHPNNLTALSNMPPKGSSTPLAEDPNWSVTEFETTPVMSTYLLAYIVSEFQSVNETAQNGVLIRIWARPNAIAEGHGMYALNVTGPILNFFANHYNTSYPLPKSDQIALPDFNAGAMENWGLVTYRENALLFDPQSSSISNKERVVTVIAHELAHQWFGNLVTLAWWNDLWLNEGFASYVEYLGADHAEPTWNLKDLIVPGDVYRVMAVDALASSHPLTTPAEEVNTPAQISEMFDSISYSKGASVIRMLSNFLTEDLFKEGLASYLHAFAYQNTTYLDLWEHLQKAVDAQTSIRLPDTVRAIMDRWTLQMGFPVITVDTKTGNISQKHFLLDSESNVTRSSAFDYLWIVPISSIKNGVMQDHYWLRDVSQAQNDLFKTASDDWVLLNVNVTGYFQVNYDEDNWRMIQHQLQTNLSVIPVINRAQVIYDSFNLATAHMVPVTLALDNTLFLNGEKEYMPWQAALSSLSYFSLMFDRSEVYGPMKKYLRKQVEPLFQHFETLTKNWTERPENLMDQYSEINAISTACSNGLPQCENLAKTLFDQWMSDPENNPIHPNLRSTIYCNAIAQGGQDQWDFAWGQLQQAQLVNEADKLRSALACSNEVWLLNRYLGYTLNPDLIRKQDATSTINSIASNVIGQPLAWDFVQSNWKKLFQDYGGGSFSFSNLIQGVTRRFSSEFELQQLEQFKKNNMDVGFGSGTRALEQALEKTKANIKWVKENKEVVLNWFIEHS
- assay_explanation: Inhibition of pig kidney Aminopeptidase N
pKi: −log10 of the molar value.

{"columns": ["molecule", "pKi"],
 "data": [
  ["CC(C)CC(N)[PH](=O)O (configuration not stated)", 5.92],
  ["CSCCC(N)[PH](=O)O (configuration not stated)", 6.40],
  ["CC(N)[PH](=O)O (configuration not stated)", 5.08],
  ["N[C@H](CS)CCc1ccccc1", 7.57],
  ["NC(Cc1ccccc1)[PH](=O)O (configuration not stated)", 6.02],
  ["NC(c1ccccc1)[PH](=O)O (configuration not stated)", 5.32],
  ["C[C@H](N)CS", 7.55]
]}
